- method.description: Single oral pharmacokinetics of the free form in suspension in male rats
- Assay type: in vivo, male Sprague Dawley rats
- condition.set: Sprague Dawley, rat, plasma, po; male rats; free form; 30 mg/kg
- Protocol: The pharmacokinetics of Compound 1 were assessed in the same species used in the toxicology studies: CD-1 mice, Sprague Dawley rats and beagle dogs. The pharmacokinetics of Compound 1 were also assessed in cynomolgus monkeys. Non-validated research grade assays were used for these analyses. All pharmacokinetic studies were conducted using fed animals unless otherwise specified. At 600 mg/kg, the increase in systemic exposure was less than proportional to the increase in dose. […]
measured.quantity: Tmax (h)
Give bare numbers, in h.

Reported Tmax for Cc1ccc(NC(=O)C2(c3ccc4c(c3)OC(F)(F)O4)CC2)nc1-c1cccc(C(=O)O)c1 [Compound 1] : what is it?
4

====

- method.description: Single oral pharmacokinetics of the free form in suspension in male rats
- Format: in vivo, male Sprague Dawley rats
- condition.set: Sprague Dawley, rat, plasma, po; male rats; free form; 600 mg/kg
measured.quantity: Cmax (µg/mL)
Give bare numbers, in µg/mL.

Reported Cmax for Cc1ccc(NC(=O)C2(c3ccc4c(c3)OC(F)(F)O4)CC2)nc1-c1cccc(C(=O)O)c1 : what is it?
203

====

- method.description: Toxicokinetics in acute oral toxicity study in rats
- Type: in vivo
- condition.set: Sprague Dawley, rat, plasma, po, 2000 mg/kg, Male
measured.quantity: Cmax (µg/mL)
Answers are plain numbers, in µg/mL.

Reported Cmax for Cc1ccc(NC(=O)C2(c3ccc4c(c3)OC(F)(F)O4)CC2)nc1-c1cccc(C(=O)O)c1 [Compound 1] : what is it?
306

====

- method.description: Tissue distribution in male rats after single oral dose of 75 mg/kg
- Assay type: in vivo, male Sprague Dawley rats
- condition.set: male, Sprague Dawley, rat, liver, po, 75 mg/kg, male rats; 75 mg/kg oral; 1 hr; read-out: Tissue/Plasma Ratio, Liver
- Procedure: Following a single oral administration of unlabelled Compound 1 to rats, the highest distribution was to the liver followed by lung, pancreas and brain with tissue-to-plasma ratios of 0.73, 0.19, 0.13 and 0.02, respectively, at one hour following oral administration of 75 mg/kg. […] Although the distribution to the lung is low relative to plasma, the concentrations measured in lung at low and moderate doses are predicted to be efficacious.
measured.quantity: Kp at 1 h
Answers are plain numbers.

Reported Kp at 1 h for Cc1ccc(NC(=O)C2(c3ccc4c(c3)OC(F)(F)O4)CC2)nc1-c1cccc(C(=O)O)c1 : what is it?
0.73

====

- method.description: Toxicokinetics in 14-day oral toxicity study in rats
- condition.set: male, Sprague Dawley, rat, in vivo, 600 mg/kg/day, Study Day 1, Male
measured.quantity: Tmax

Reported Tmax for Cc1ccc(NC(=O)C2(c3ccc4c(c3)OC(F)(F)O4)CC2)nc1-c1cccc(C(=O)O)c1 : what is it?
10 h

====

- method.description: Toxicokinetics in acute oral toxicity study in rats
- Type: in vivo
- condition.set: rat, plasma, po, 2000 mg/kg, Female, read-out: tmax
measured.quantity: Tmax (h)
Give bare numbers, in h.

Reported Tmax for Cc1ccc(NC(=O)C2(c3ccc4c(c3)OC(F)(F)O4)CC2)nc1-c1cccc(C(=O)O)c1 : what is it?
10

====

- method.description: Single oral pharmacokinetics of the free form in suspension in male rats
- Format: in vivo, male Sprague Dawley rats
- condition.set: Sprague Dawley, rat, plasma, oral; male rats; free form; 600 mg/kg; read-out: Clast
measured.quantity: concentration at 72 hr
Answer with the value and then the unit.

Reported concentration at 72 hr for Cc1ccc(NC(=O)C2(c3ccc4c(c3)OC(F)(F)O4)CC2)nc1-c1cccc(C(=O)O)c1 : what is it?
1240 ng/mL

====

- method.description: Tissue distribution in male rats after single oral dose of 75 mg/kg
- Format: in vivo, male Sprague Dawley rats
- condition.set: Sprague Dawley, rat; male rats; 75 mg/kg oral; Plasma
measured.quantity: AUC(0-inf) (µg·h/mL)
Numbers only, in µg·h/mL.

Reported AUC(0-inf) for Cc1ccc(NC(=O)C2(c3ccc4c(c3)OC(F)(F)O4)CC2)nc1-c1cccc(C(=O)O)c1 [Compound 1] : what is it?
980

====

- method.description: Single oral pharmacokinetics of the free form in suspension in male rats
- Assay type: in vivo, male Sprague Dawley rats
- condition.set: Sprague Dawley, rat, plasma, po; male rats; free form; 300 mg/kg
measured.quantity: Cmax (µg/mL)
Give bare numbers, in µg/mL.

Reported Cmax for Cc1ccc(NC(=O)C2(c3ccc4c(c3)OC(F)(F)O4)CC2)nc1-c1cccc(C(=O)O)c1 [Compound 1] : what is it?
181

====

- method.description: in vivo
- condition.set: dog, po
measured.quantity: NOAEL at 14 days (mg/kg/day)
Answers are plain numbers, in mg/kg/day.

Reported NOAEL at 14 days for Cc1ccc(NC(=O)C2(c3ccc4c(c3)OC(F)(F)O4)CC2)nc1-c1cccc(C(=O)O)c1 : what is it?
200

====

- method.description: Single oral pharmacokinetics of the free form in suspension in male rats
- Format: in vivo, male Sprague Dawley rats
- condition.set: Sprague Dawley, rat, plasma, po; male rats; free form suspension; nominal dose 1 mg/kg; mean (SD)
- Method: The pharmacokinetics of Compound 1 were assessed in the same species used in the toxicology studies: CD-1 mice, Sprague Dawley rats and beagle dogs. The pharmacokinetics of Compound 1 were also assessed in cynomolgus monkeys. Non-validated research grade assays were used for these analyses. All pharmacokinetic studies were conducted using fed animals unless otherwise specified. At 600 mg/kg, the increase in systemic exposure was less than proportional to the increase in dose. […]
measured.quantity: AUC(0-inf) (ng·h/mL)
Numbers only, in ng·h/mL.

Reported AUC(0-inf) for Cc1ccc(NC(=O)C2(c3ccc4c(c3)OC(F)(F)O4)CC2)nc1-c1cccc(C(=O)O)c1 : what is it?
13700

====

- method.description: Oral pharmacokinetics of Compound 1 in fed or fasted male dogs at 10 mg/kg
- Type: in vivo, male beagle dogs
- condition.set: male, beagle, dog, plasma, po, 10 mg/kg, male dogs; Fed
measured.quantity: Tmax
Answer with the value and then the unit.

Reported Tmax for Cc1ccc(NC(=O)C2(c3ccc4c(c3)OC(F)(F)O4)CC2)nc1-c1cccc(C(=O)O)c1 : what is it?
2.7 h

====

- method.description: Toxicokinetics in acute oral toxicity study in rats
- Format: in vivo
- condition.set: rat, plasma, po, 2000 mg/kg, Female
measured.quantity: Cmax (µg/mL)
Give bare numbers, in µg/mL.

Reported Cmax for Cc1ccc(NC(=O)C2(c3ccc4c(c3)OC(F)(F)O4)CC2)nc1-c1cccc(C(=O)O)c1 : what is it?
305

====

- method.description: Tissue distribution in male rats after single oral dose of 75 mg/kg
- Assay type: in vivo, male Sprague Dawley rats
- condition.set: Sprague Dawley, rat; male rats; 75 mg/kg oral; Plasma
measured.quantity: Cmax
Answer with the value and then the unit.

Reported Cmax for Cc1ccc(NC(=O)C2(c3ccc4c(c3)OC(F)(F)O4)CC2)nc1-c1cccc(C(=O)O)c1 [Compound 1] : what is it?
59.1 µg/mL

====

- method.description: Toxicokinetics in 14-day oral toxicity study in rats
- condition.set: female, Sprague Dawley, rat, in vivo, 600 mg/kg/day, Study Day 14, Female, read-out: AUC0-24 hr
measured.quantity: AUC(0-t) (µg·h/mL)
One number for each entry, in µg·h/mL.

Reported AUC(0-t) for Cc1ccc(NC(=O)C2(c3ccc4c(c3)OC(F)(F)O4)CC2)nc1-c1cccc(C(=O)O)c1 : what is it?
5500

====

- method.description: Tissue distribution in male rats after single oral dose of 75 mg/kg
- Type: in vivo, male Sprague Dawley rats
- condition.set: Sprague Dawley, rat; male rats; 75 mg/kg oral; Brain
measured.quantity: Cmax
Answer with the value and then the unit.

Reported Cmax for Cc1ccc(NC(=O)C2(c3ccc4c(c3)OC(F)(F)O4)CC2)nc1-c1cccc(C(=O)O)c1 [Compound 1] : what is it?
957 ng/mL

====

- method.description: Tissue distribution in male rats after single oral dose of 75 mg/kg
- Type: in vivo, male Sprague Dawley rats
- condition.set: Sprague Dawley, rat; male rats; 75 mg/kg oral; Brain
- Protocol: Following a single oral administration of unlabelled Compound 1 to rats, the highest distribution was to the liver followed by lung, pancreas and brain with tissue-to-plasma ratios of 0.73, 0.19, 0.13 and 0.02, respectively, at one hour following oral administration of 75 mg/kg. […] Although the distribution to the lung is low relative to plasma, the concentrations measured in lung at low and moderate doses are predicted to be efficacious.
measured.quantity: Tmax (h)
One number for each entry, in h.

Reported Tmax for Cc1ccc(NC(=O)C2(c3ccc4c(c3)OC(F)(F)O4)CC2)nc1-c1cccc(C(=O)O)c1 : what is it?
4

====

- method.description: Acute oral toxicity study in mice
- condition.set: mouse, in vivo, po
measured.quantity: NOAEL at 14 days

Reported NOAEL at 14 days for Cc1ccc(NC(=O)C2(c3ccc4c(c3)OC(F)(F)O4)CC2)nc1-c1cccc(C(=O)O)c1 [Compound 1] : what is it?
> 2000 mg/kg
